Record form. Attribute: MIC-fold improvement vs. vancomycin. Fill in for each entry.
system: E. faecalis VRE 53; assay: MIC, broth microdilution, vancomycin-resistant E. faecalis VRE 53 (VanA); type: cell-based, Enterococcus faecalis; settings: VRE 53; ratio of MIC of vancomycin and MIC of analogue

COMPOUND | EXPERIMENTAL_SYSTEM | MIC-fold improvement vs. vancomycin
CN[C@H](CC(C)C)C(=O)N[C@H]1C(=O)N[C@@H](CC(N)=O)C(=O)N[C@H]2C(=O)N[C@H]3C(=O)N[C@H](C(=O)N[C@H](C(=O)NCC(=O)Nc4cccc5ccccc45)c4cc(O)cc(O)c4-c4cc3ccc4O)[C@H](O)c3ccc(c(Cl)c3)Oc3cc2cc(c3O[C@@H]2O[C@H](CO)[C@@H](O)[C@H](O)[C@H]2O[C@H]2C[C@](C)(N)[C@H](O)[C@H](C)O2)Oc2ccc(cc2Cl)[C@H]1O | E. faecalis VRE 53 | 16

# batch: return MIC-fold improvement vs. vancomycin for each of the 5 compounds below
1. CNC(CC(C)C)C(=O)NC1C(=O)NC(CC(N)=O)C(=O)NC2C(=O)NC3C(=O)NC(C(=O)NC(C(=O)NCC(=O)Nc4ccc(C#CC5CCCC5)cc4)c4cc(O)cc(O)c4-c4cc3ccc4O)C(O)c3ccc(c(Cl)c3)Oc3cc2cc(c3OC2OC(CO)C(O)C(O)C2OC2CC(C)(N)C(O)C(C)O2)Oc2ccc(cc2Cl)C1O (stereo not drawn)
2. CNC(CC(C)C)C(=O)NC1C(=O)NC(CC(N)=O)C(=O)NC2C(=O)NC3C(=O)NC(C(=O)NC(C(=O)NCCNC(=O)C=Cc4ccccc4)c4cc(O)cc(O)c4-c4cc3ccc4O)C(O)c3ccc(c(Cl)c3)Oc3cc2cc(c3OC2OC(CO)C(O)C(O)C2OC2CC(C)(N)C(O)C(C)O2)Oc2ccc(cc2Cl)C1O (stereo not drawn)
3. CN[C@H](CC(C)C)C(=O)N[C@H]1C(=O)N[C@@H](CC(N)=O)C(=O)N[C@H]2C(=O)N[C@H]3C(=O)N[C@H](C(=O)N[C@H](C(=O)NCC(=O)Nc4ccc(OC)c(OC)c4)c4cc(O)cc(O)c4-c4cc3ccc4O)[C@H](O)c3ccc(c(Cl)c3)Oc3cc2cc(c3O[C@@H]2O[C@H](CO)[C@@H](O)[C@H](O)[C@H]2O[C@H]2C[C@](C)(N)[C@H](O)[C@H](C)O2)Oc2ccc(cc2Cl)[C@H]1O
4. CN[C@H](CC(C)C)C(=O)N[C@H]1C(=O)N[C@@H](CC(N)=O)C(=O)N[C@H]2C(=O)N[C@H]3C(=O)N[C@H](C(=O)N[C@H](C(=O)NCC(=O)Nc4ccc(C#Cc5ccccc5)cc4)c4cc(O)cc(O)c4-c4cc3ccc4O)[C@H](O)c3ccc(c(Cl)c3)Oc3cc2cc(c3O[C@@H]2O[C@H](CO)[C@@H](O)[C@H](O)[C@H]2O[C@H]2C[C@](C)(N)[C@H](O)[C@H](C)O2)Oc2ccc(cc2Cl)[C@H]1O
5. C#CCCC(=O)NCCCNC(=O)C1NC(=O)C2NC(=O)C(NC(=O)C3NC(=O)C(CC(N)=O)NC(=O)C(NC(=O)C(CC(C)C)NC)C(O)c4ccc(c(Cl)c4)Oc4cc3cc(c4OC3OC(CO)C(O)C(O)C3OC3CC(C)(N)C(O)C(C)O3)Oc3ccc(cc3Cl)C2O)c2ccc(O)c(c2)-c2c(O)cc(O)cc21 (stereo not drawn)

## Output
64
32
32
128
32
